assayedSystem: T1, HEPN domain of SACSIN (tag removed) (UniProt Q9NZJ4 4441-4579)
T1 sequence: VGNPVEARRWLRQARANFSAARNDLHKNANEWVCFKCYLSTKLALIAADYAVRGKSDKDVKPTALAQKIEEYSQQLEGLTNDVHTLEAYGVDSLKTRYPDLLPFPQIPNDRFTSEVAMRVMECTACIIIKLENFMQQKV
procedureSummary: BLI; BLI: 20 mM potassium phosphate pH 7.4, 150 mM KCl, 0.05% Tween-20, 25 C; pull-down: PBS, 2 mM MgCl2, 0.2% NP-40, 0.05% BSA, RNase inhibitor, room temperature
protocolConditions: protein: recombinant; tags: GST removed by thrombin; chain copies: 2; label: 5' biotin; 1 strand; two putative G-quadruplex-forming stretches
pKd: −log10 of the molar value.
resultType: pKd

> print(dat)
                                     binder  endpointresult
1  CGGGGGCGGCGGCGGCGGCGGCGGCAGCGGGG (ssRNA) [GC-rich RNA 32 nt (predicted HEPN interacting RNA)]            5.59
